Data origin: patent US20240123080A1

# assay: LogD, miniaturized 1-octanol/pH 7.4 buffer shake flask method, LC/MS/MS
# Type: physicochemical
Where a SMILES comes first, the peptide text is derived from it. [ ]: non-standard residue; d: D form. The star is where a group is joined. Dolaproine = CO[C@@H]([C@@H]1CCCN1)[C@@H](C)C(=O)O; Dil = CC[C@H](C)[C@H](NC)[C@@H](CC(=O)O)OC; Val(3-OH) = CC(C)(O)[C@H](N)C(=O)O; Doe = c1ccc(C[C@H](N*)c2nccs2)cc1; NMeT = CN[C@H](C(=O)O)[C@@H](C)O; Phe(ol) = N[C@H](CO)Cc1ccccc1; NHPhenethyl = c1ccc(CCN*)cc1; NMeS = CN[C@@H](CO)C(=O)O

compound	logD
CC[C@H](C)[C@@H]([C@@H](CC(=O)N1CCC[C@H]1[C@H](OC)[C@@H](C)C(=O)N[C@H](CO)Cc1ccccc1)OC)N(C)C(=O)[C@@H](NC(=O)[C@@H](N)C(C)(C)O)C(C)C [Example 29] (H-[Val(3-OH)]V[Dil][Dolaproine][Phe(ol)])	2
CC[C@H](C)[C@@H]([C@@H](CC(=O)N1CCC[C@H]1[C@H](OC)[C@@H](C)C(=O)NCCc1ccccc1)OC)N(C)C(=O)[C@@H](NC(=O)[C@H](CO)NC)C(C)C [Example 18] (H-[NMeS]V[Dil][Dolaproine]-NHPhenethyl)	1.9
CC[C@H](C)[C@@H]([C@@H](CC(=O)N1CCC[C@H]1[C@H](OC)[C@@H](C)C(=O)N[C@H](CO)Cc1ccccc1)OC)N(C)C(=O)[C@@H](NC(=O)[C@@H](NC)[C@@H](C)O)C(C)C [Example 13] (H-[NMeT]V[Dil][Dolaproine][Phe(ol)])	1.4
CC[C@H](C)[C@@H]([C@@H](CC(=O)N1CCC[C@H]1[C@H](OC)[C@@H](C)C(=O)N[C@@H](Cc1ccccc1)c1nccs1)OC)N(C)C(=O)[C@@H](NC(=O)[C@@H](N)C(C)(C)O)C(C)C [Example 31] (H-[Val(3-OH)]V[Dil][Dolaproine]-Doe)	3.4
